Field: pIC50. Provide a value for each of the molecules that follow.
- Test system: rat aorta
- assay notes: Inhibition of calcium-induced contraction of isolated rat aorta strips (reduction of response to added calcium chloride in K+-containing saline)
- Type: cell-based
- assay context: 0.75 h; spirally cut rat aorta strips, 45 millimolar potassium, calcium 2 millimolar, test repeated with compound after 45 minutes; read-out: molar concentration of the compounds required to reduce the response by 50% (IC50)
One number for each entry, as −log10 of the molar value.

molecule="CCOC(=O)C1=C(COCCN2CCN(C(=NC#N)NC)CC2)NC(C)=C(C(=O)OC)C1c1cccc(Cl)c1Cl (stereo not shown) [Example 9]" result_value=7.82
molecule="CCOC(=O)C1=C(COCCN2CCN(C(N)=O)CC2)NC(C)=C(C(=O)OC)C1c1cccc(Cl)c1Cl (stereo not shown) [Example 37]" result_value=8.10

Return reported pIC50 values for all items listed beneath this line.
1. CCOC(=O)C1=C(COCCN2CCN(C(=O)NC)CC2)NC(C)=C(C(=O)OC)C1c1ccccc1Cl (stereo not shown) [Example 13]
2. CCOC(=O)C1=C(COCCN2CCN(CC(N)=O)CC2)NC(C)=C(C(=O)OC)C1c1ccccc1Cl (stereo not shown) [Example 40]

8.22
7.98
